Recorded pKi by entry
target: UniProt P14416; assay: biochemical
Description: Binding affinity towards human D2 short receptor using [3H]spiperone expressed in CHO cells
// pKi here means minus log10 of the molar concentration (mol/L)

Before answering, review these 5 worked examples.
SMILES REPR: COc1ccccc1N1CCN(CCCCNC(=O)c2cc3cc(I)ccc3o2)CC1
pKi: 7.57
//
SMILES REPR: COc1ccccc1N1CCN(CCCCNC(=O)c2cc3cc(I)ccc3s2)CC1
pKi: 9.00
//
SMILES REPR: O=C(NCCCCN1CCN(c2cccc(Cl)c2Cl)CC1)c1cc2cc(I)ccc2s1
pKi: 6.85
//
SMILES REPR: COc1ccccc1N1CCN(CCCCNC(=O)c2ccc(I)s2)CC1
pKi: 7.46
//
SMILES REPR: O=C(NCCCCN1CCN(c2cccc(Cl)c2Cl)CC1)c1ccc(I)s1
pKi: 7.49

// next entry
Request: Find pKi for "O=C(NCCCCN1CCN(c2cccc(Cl)c2Cl)CC1)c1cc2cc(I)ccc2o1" on UniProt P14416 and write it down.
Response: 6.37

====

Target: D(4) dopamine receptor (Homo sapiens)
Sequence (P21917 whole entry): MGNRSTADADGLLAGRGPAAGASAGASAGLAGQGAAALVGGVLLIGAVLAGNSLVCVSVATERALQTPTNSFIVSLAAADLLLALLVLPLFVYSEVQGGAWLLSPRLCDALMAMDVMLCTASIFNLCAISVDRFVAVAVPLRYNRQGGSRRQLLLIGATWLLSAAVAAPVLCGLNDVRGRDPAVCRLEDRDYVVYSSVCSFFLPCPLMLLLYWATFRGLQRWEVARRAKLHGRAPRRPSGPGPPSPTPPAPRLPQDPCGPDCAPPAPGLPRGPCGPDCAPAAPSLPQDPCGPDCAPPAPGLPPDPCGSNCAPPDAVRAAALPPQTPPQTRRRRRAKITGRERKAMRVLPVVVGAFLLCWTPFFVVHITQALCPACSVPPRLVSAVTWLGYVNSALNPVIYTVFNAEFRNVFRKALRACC
QUANTITY KIND: Ki (µM)
# number only, unit µM dropped from output

Request: Entry "O=C(NCCCCN1CCN(c2cccc(Cl)c2Cl)CC1)c1ccc(I)s1" needs its Ki filled in; supply it.
Response: 0.13

====

biological target: D(2) dopamine receptor (Homo sapiens, UniProt P14416); experiment: biochemical
Sequence (P14416 whole entry): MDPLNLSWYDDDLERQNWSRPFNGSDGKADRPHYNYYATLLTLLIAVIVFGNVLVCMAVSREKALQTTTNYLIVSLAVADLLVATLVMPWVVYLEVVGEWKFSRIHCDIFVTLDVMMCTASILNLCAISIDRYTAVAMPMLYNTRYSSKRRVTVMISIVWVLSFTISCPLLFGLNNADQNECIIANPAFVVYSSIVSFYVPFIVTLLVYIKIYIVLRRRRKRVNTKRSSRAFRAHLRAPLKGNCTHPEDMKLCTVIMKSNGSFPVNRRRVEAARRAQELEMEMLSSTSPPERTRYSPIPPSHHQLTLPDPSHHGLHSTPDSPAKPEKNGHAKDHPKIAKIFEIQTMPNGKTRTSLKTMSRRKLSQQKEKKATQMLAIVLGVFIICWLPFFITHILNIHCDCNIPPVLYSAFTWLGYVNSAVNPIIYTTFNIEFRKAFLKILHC
Description: Binding affinity towards human D2 long receptor using [3H]spiperone expressed in CHO cells
Please assign Not fulfilled whenever Ki is at or above 80 nM, and Fulfilled whenever it is below.

Record excerpt, results attached:
SMILES REPR: O=C(NCCCCN1CCN(c2cccc(Cl)c2Cl)CC1)c1cc2cc(I)ccc2s1
STUDY TARGET: D(2) dopamine receptor (Homo sapiens, UniProt P14416)
GROUP LABEL: Not fulfilled

SMILES REPR: O=C(NCCCCN1CCN(c2cccc(Cl)c2Cl)CC1)c1cc2cc(I)ccc2o1
STUDY TARGET: D(2) dopamine receptor (Homo sapiens, UniProt P14416)
GROUP LABEL: Not fulfilled

SMILES REPR: O=C(NCCCCN1CCN(c2cccc(Cl)c2Cl)CC1)c1ccc(I)s1
STUDY TARGET: D(2) dopamine receptor (Homo sapiens, UniProt P14416)
GROUP LABEL: Not fulfilled

SMILES REPR: COc1ccccc1N1CCN(CCCCNC(=O)c2ccc(I)s2)CC1
STUDY TARGET: D(2) dopamine receptor (Homo sapiens, UniProt P14416)
GROUP LABEL: Fulfilled

We now examine a further molecule.
Request: Is Ki strictly under 80 nM for the entry "COc1ccccc1N1CCN(CCCCNC(=O)c2cc3cc(I)ccc3s2)CC1" ?
Response: Fulfilled

====

target: D(1A) dopamine receptor (Sus scrofa); assay: Binding affinity towards D1 receptor from porcine striatal membranes using [3H]-SCH- 23390
Sequence (P50130 whole entry): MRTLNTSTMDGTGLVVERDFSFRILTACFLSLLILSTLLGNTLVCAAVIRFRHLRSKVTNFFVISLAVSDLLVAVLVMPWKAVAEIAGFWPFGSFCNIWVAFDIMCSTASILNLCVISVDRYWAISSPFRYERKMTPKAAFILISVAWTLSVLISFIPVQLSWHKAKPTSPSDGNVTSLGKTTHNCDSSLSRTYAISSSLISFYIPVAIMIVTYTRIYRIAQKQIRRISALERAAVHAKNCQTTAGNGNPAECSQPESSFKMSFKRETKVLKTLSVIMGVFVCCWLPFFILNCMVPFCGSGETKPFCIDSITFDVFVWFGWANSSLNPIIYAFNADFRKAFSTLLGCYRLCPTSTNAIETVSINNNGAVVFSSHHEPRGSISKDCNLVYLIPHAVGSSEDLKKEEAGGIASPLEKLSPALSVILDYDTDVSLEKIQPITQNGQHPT
Please assign N whenever Ki is at or above 800 nM, and Y whenever it is below.

Record excerpt, results attached:
SMILES REPR: COc1ccccc1N1CCN(CCCCNC(=O)c2cc3cc(I)ccc3o2)CC1
GROUP LABEL: Y

SMILES REPR: COc1ccccc1N1CCN(CCCCNC(=O)c2cc3cc(I)ccc3s2)CC1
GROUP LABEL: Y

SMILES REPR: O=C(NCCCCN1CCN(c2cccc(Cl)c2Cl)CC1)c1cc2cc(I)ccc2o1
GROUP LABEL: N

SMILES REPR: COc1ccccc1N1CCN(CCCCNC(=O)c2ccc(I)s2)CC1
GROUP LABEL: Y

We now examine a further compound.
Request: Is Ki strictly under 800 nM for the entry "O=C(NCCCCN1CCN(c2cccc(Cl)c2Cl)CC1)c1cc2cc(I)ccc2s1" ?
Response: N

====

test: Binding affinity towards 5-HT2 receptor from porcine cortical membranes using [3H]ketanserin
QUANTITY KIND: Ki (nM)
# number only, unit nM dropped from output

SMILES REPR: COc1ccccc1N1CCN(CCCCNC(=O)c2cc3cc(I)ccc3o2)CC1
Ki (nM): 230

Request: Entry "O=C(NCCCCN1CCN(c2cccc(Cl)c2Cl)CC1)c1cc2cc(I)ccc2o1" needs its Ki filled in; supply it.
Response: 790

Request: Entry "O=C(NCCCCN1CCN(c2cccc(Cl)c2Cl)CC1)c1cc2ccccc2s1" needs its Ki filled in; supply it.
Response: 3000

Request: Entry "O=C(NCCCCN1CCN(c2cccc(Cl)c2Cl)CC1)c1ccc(I)s1" needs its Ki filled in; supply it.
Response: 210

Request: Entry "O=C(NCCCCN1CCN(c2cccc(Cl)c2Cl)CC1)c1cc2cc(I)ccc2s1" needs its Ki filled in; supply it.
Response: 290

Request: Entry "COc1ccccc1N1CCN(CCCCNC(=O)c2cc3cc(I)ccc3s2)CC1" needs its Ki filled in; supply it.
Response: 250

Request: Entry "COc1ccccc1N1CCN(CCCCNC(=O)c2ccc(I)s2)CC1" needs its Ki filled in; supply it.
Response: 690

====

Recorded pKi by entry
molecular target: D(3) dopamine receptor (Homo sapiens)
Sequence (P35462 whole entry): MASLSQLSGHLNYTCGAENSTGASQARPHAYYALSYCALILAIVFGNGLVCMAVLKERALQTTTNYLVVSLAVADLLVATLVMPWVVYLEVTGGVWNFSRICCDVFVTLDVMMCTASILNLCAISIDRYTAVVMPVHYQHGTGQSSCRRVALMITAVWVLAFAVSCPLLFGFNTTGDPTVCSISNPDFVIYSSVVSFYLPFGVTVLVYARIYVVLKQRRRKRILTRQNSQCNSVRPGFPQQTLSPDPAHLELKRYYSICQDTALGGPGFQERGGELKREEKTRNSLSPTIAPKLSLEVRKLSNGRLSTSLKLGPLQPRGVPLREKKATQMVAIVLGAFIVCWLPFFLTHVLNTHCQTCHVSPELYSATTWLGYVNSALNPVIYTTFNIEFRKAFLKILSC
// pKi here means minus log10 of the molar concentration (mol/L)

Before answering, review these 3 worked examples.
SMILES REPR: COc1ccccc1N1CCN(CCCCNC(=O)c2cc3cc(I)ccc3o2)CC1
TEST RESULT: 8.85

SMILES REPR: O=C(NCCCCN1CCN(c2cccc(Cl)c2Cl)CC1)c1ccc(I)s1
TEST RESULT: 8.85

SMILES REPR: COc1ccccc1N1CCN(CCCCNC(=O)c2cc3cc(I)ccc3s2)CC1
TEST RESULT: 9.07

// next entry
Request: Find pKi for "O=C(NCCCCN1CCN(c2cccc(Cl)c2Cl)CC1)c1cc2cc(I)ccc2s1" on D(3) dopamine receptor (Homo sapiens) and write it down.
Response: 8.35
